The reported measurements were obtained from paper PMC1079881.

Measured pIC50 by item
- System: LPS-activated rat neonatal microglia
- protocol.text: PMA-stimulated O2^- generation by LPS-activated rat neonatal microglia (SOD-inhibitable FCC reduction)
- Assay type: cell-based
- assay.context: Rattus norvegicus, Microglia; PMA 1 μM, 70 min; LPS 0.3 ng/mL 17 h
pIC50: −log10 of the molar value.

molecule	assay.target	pIC50
O=C1CCCN2[C@@H](CC1)C[C@]13CN4CCCC/C=C\CC[C@](O)(C=C(c5nccc6c5[nH]c5c(O)cccc56)C1CC4)[C@H]23 (stereo partly drawn) [MZF, manzamine F]	LPS-activated rat neonatal microglia	< 5.00
O=C1CCCN2[C@@H](CC1)C[C@]13CN4CCCC/C=C\CC[C@](O)(C=C(c5nccc6c5[nH]c5ccccc56)[C@@H]1CC4)[C@H]23 [MZE, manzamine E]	LPS-activated rat neonatal microglia	< 5.00
O[C@]12C=C(C3NCCc4c3[nH]c3ccccc43)[C@@H]3CCN(CCCC/C=C\CC1)C[C@@]31C[C@@H]3/C=C\CCCCN3[C@H]12 (stereo partly drawn) [MZD, manzamine D]	LPS-activated rat neonatal microglia	> 7.00
